Where these numbers come from: ChEMBL document CHEMBL3430912

Test system: Leishmania donovani
Assay: GSK_TCAKS: pIC50 Leishmania donovani Imaging: Amastigotes/Macrophages. Assay plates (384-well) were prepared by adding 250nL of compound to each well. For single shot assay, the final compound concentration was 5 uM. […] Automated image analysis was performed with a script developed on Acapella High Content Imaging and Analysis Software (PerkinElmer). Output: Average number of amastigotes per macrophage cell were reported for each well.
Format: functional, organism-based, Homo sapiens
Details: THP-1
QUANTITY NAME: IC50 (µM)
Answers are plain numbers, in µM.

Below, each entry is followed by its recorded IC50 result.
Ask: Please give the measured IC50 for this molecule: c1ccc(-c2nc(NCc3ccco3)c3ccccc3n2)nc1
Reply: 2.51

Ask: COc1ccc2nccc(NC(=O)C3(OC)CCN(CC(O)c4ccc5c(c4)OCCO5)CC3)c2n1 (stereo unspecified) , same question.
Reply: 6.31

Ask: CCN(Cc1nc2ccc(C(=O)N3CCN(c4ncccn4)CC3)cc2[nH]1)C1CCCc2cccnc21 (stereo unspecified) , same question.
Reply: 1.58

Ask: Cn1nc(C(=O)N2CCc3ccccc32)c2c1CCS(=O)(=O)C2 , same question.
Reply: 1.58

Ask: Cc1cccc(N2CCCN(Cc3c[nH]c4ccccc34)CC2)n1 , same question.
Reply: 10

Ask: CN1CCC(N(C)c2nccc(N3CCN(C(=O)c4cccc(-c5cccnc5)c4)CC3)n2)CC1 , same question.
Reply: 1.26

Ask: CC1(Oc2cncc(Cl)c2)CCN(Cc2cc3ccccc3[nH]2)C1 (stereo unspecified) , same question.
Reply: 31.6

Ask: COc1ccc(CN(C)Cc2ccncc2)cc1-c1ccc(S(=O)(=O)NC2CCC2)s1 , same question.
Reply: 15.8

Ask: O=C(Nc1cccc(F)c1)N1CCC(Oc2cccc(-c3cccnc3)c2)CC1 , same question.
Reply: 0.794

Ask: CCCC(=O)N(Cc1ccccn1)c1nc2ccccc2s1 , same question.
Reply: 10

Hi, could you look up IC50 for each item in my list?
1. COc1ccc(NC(=O)c2ccc(NC(=O)CN(c3ccccc3C)S(C)(=O)=O)cc2)cc1
2. O=C(c1ccc(O)c(Cl)c1)N1CCN(c2cnccn2)CC1
3. CCCc1cc(C(=O)Nc2ncc(-c3cccc(Br)c3)n2C)[nH]n1
4. Cc1ccc2ccc(C(Nc3ccccn3)c3cccnc3)c(O)c2n1 (stereo unspecified)
5. O=C(c1cccc(Cl)c1Cl)N1CCn2c1nc(-c1ccncc1)cc2=O
6. COc1ccc2ncc(F)c(CCN3CC[C@@H](NC(=O)c4cc5c(s4)CCC5)[C@@H](O)C3)c2n1
7. O=C(CN(Cc1ccccn1)Cc1ccccn1)NC1Cc2ccccc2C1

Reply:
7.94
3.16
3.98
7.94
31.6
1.26
5.01
